# credit: patent US20220024891A1

Documented melting point across a set of compounds

Before answering, review these 8 worked examples.
compound: CC1CCN(C2CCN(S(=O)(=O)c3ccc(OCc4ccccc4)cc3)CC2)CC1
attributeMeasured: melting point
reported: 157 to 159 °C
--
compound: CC1CCN(C2CCN(S(=O)(=O)c3cc(Cl)cc(Cl)c3)CC2)CC1
attributeMeasured: melting point
reported: 128 to 131 °C
--
compound: CC1CCN(C2CCN(S(=O)(=O)c3ccccc3Br)CC2)CC1
attributeMeasured: melting point
reported: 82 to 84 °C
--
compound: CC1CCN(C2CCN(S(=O)(=O)c3ccc(-c4ccc(Cl)cc4)cc3)CC2)CC1
attributeMeasured: melting point
reported: 205 to 207 °C
--
compound: COc1ccc(-c2cccc(S(=O)(=O)N3CCC(N4CCC(C)CC4)CC3)c2)cc1
attributeMeasured: melting point
reported: 107 to 109 °C
--
compound: CC1CCCN(C2CCN(S(=O)(=O)c3ccc(OC(F)F)cc3)CC2)C1 (stereo not drawn)
attributeMeasured: melting point
reported: 88 to 91 °C
--
compound: Cc1cc(C)cc(-c2cccc(S(=O)(=O)N3CCC(N4CCC(C)CC4)CC3)c2)c1
attributeMeasured: melting point
reported: 120 to 123 °C
--
compound: CC1CCN(C2CCN(S(=O)(=O)c3ccc(-c4ccccc4)cc3)CC2)CC1
attributeMeasured: melting point
reported: 178 to 181 °C

# lookup: melting point of Cc1cc(C)c(S(=O)(=O)N2CCC(C(=O)N3CCC(C)CC3)CC2)c(C)c1
122 to 124 °C

What melting point value was documented for this compound, CC1CCN(C2CCN(S(=O)(=O)c3cn(C)c(=O)n(C)c3=O)CC2)CC1 ?
212 to 215 °C

---

assayInfo: Mouse PK analysis, large intestine
Assay type: in vivo
runParameters: female, CD-1, mouse, large intestine, iv, 10 mg/kg; read-out: Large Intestinal pK AUClast (converted)
attributeMeasured: AUC(0-t) (ng·h/mL)
Give the value in ng·h/mL but do not write ng·h/mL after it.

# get_value(readout='AUC(0-t)', item= CC1CCN(C2CCN(S(=O)(=O)c3ccc(Cl)cc3)CC2)CC1 )
4380

---

Entries and their measured melting point follow.

molecule: CC1CCN(C2CCN(S(=O)(=O)c3cccc(-c4ccc(Cl)cc4)c3)CC2)CC1
melting point: 124 to 126 °C
//
molecule: CC1CCN(C2CCN(S(=O)(=O)c3cncc(Br)c3)CC2)CC1
melting point: 171 to 173 °C
//
molecule: Cc1cc(C)c(S(=O)(=O)N2CCN(C3CN4CCC3CC4)CC2)c(C)c1 (centres unmarked)
melting point: > 300 °C
//
molecule: CC1CCN(C2CCN(S(=O)(=O)c3ccc(Br)cc3OC(F)(F)F)CC2)CC1
melting point: 108 to 110 °C
//
molecule: Cc1cc(C)c(S(=O)(=O)N2CCC(N3CCC(CCO)CC3)CC2)c(C)c1
melting point: 82 to 85 °C
//
molecule: Cc1cc(C)c(S(=O)(=O)N2CCC(N3CCC(c4ccccc4)CC3)CC2)c(C)c1
melting point: 141 to 144 °C
//
molecule: CC1CCN(C2CCN(C(=O)c3ccc(OC(F)(F)F)cc3)CC2)CC1
melting point: 72 to 75 °C
//
molecule: CC1CCN(C2CCN(S(=O)(=O)c3ccc(Cl)c(C(F)(F)F)c3)CC2)CC1
melting point: 118 to 120 °C
//
molecule: CC1CCN(C2CCN(S(=O)(=O)c3cccc(C(F)(F)F)c3)CC2)CC1
melting point: 123 to 125 °C
//
molecule: Cc1cc(C)c(S(=O)(=O)N2CCN(C34CC5CC(CC(C5)C3)C4)CC2)c(C)c1
melting point: 182 to 184 °C

What measured melting point goes with CCc1ccc(S(=O)(=O)N2CCC(N3CCC(C)CC3)CC2)cc1 ?
108 to 110 °C

Look up melting point: Cc1cc(C)c(S(=O)(=O)N2CCC(c3ccccc3)CC2)c(C)c1
88 to 90 °C

Report melting point for COc1ccc(Br)cc1S(=O)(=O)N1CCC(N2CCC(C)CC2)CC1 please.
98 to 102 °C

For the molecule COc1ccc(S(=O)(=O)N2CCC(N3CCC(C)CC3)CC2)cc1OC , what melting point is on record?
132 to 134 °C

Item under review: Cc1cc(C)c(S(=O)(=O)N2CCC(N3CCC(C)CC3)CC2)c(C)c1 . Reported melting point?
62 to 65 °C

Would you kindly share the measured melting point for CC1CCN(C2CCN(S(=O)(=O)c3cccnc3)CC2)CC1 ?
144 to 147 °C

Give its melting point value. Item: CC1CCN(CC2CCN(S(=O)(=O)c3ccc4ncsc4c3)CC2)CC1
137 to 139 °C
